Catalogue of GI50 values
System: M14 melanoma
Experiment: NCI tumour cell line growth inhibition, 48 h
reported.property: GI50

{"compound": "CC(C)(C)[Si](C)(C)OC1[C@@H](CNC(=O)NC(=O)CCl)O[C@@H](n2cnc3c(N)ncnc32)[C@H]1O[Si](C)(C)C(C)(C)C (stereo partly specified)", "measured.target": "M14 melanoma", "recorded.measurement": "1070 nM"}
{"compound": "ClCCN(CCCl)c1ccc(CNc2ccccc2)cc1", "measured.target": "M14 melanoma", "recorded.measurement": "8270 nM"}
{"compound": "Nc1cc(Br)c(-c2nnc(CCC(=O)c3nc4ccccc4[nH]3)o2)c(Br)c1", "measured.target": "M14 melanoma", "recorded.measurement": "17500 nM"}
{"compound": "CCCCCCCCCCNC(=O)CI", "measured.target": "M14 melanoma", "recorded.measurement": "1590 nM"}
{"compound": "COc1ccc(-c2cnnn2-c2nonc2-n2cccc2)cc1", "measured.target": "M14 melanoma", "recorded.measurement": "209 nM"}
{"compound": "c1ccc2c(c1)[nH]c1c2cc[n+]2cc3c(cc12)CCCC3", "measured.target": "M14 melanoma", "recorded.measurement": "3010 nM"}
{"compound": "N#CCCN1C/C(=C/c2ccc(Br)cc2)C(=O)/C(=C/c2ccc(Br)cc2)C1", "measured.target": "M14 melanoma", "recorded.measurement": "1990 nM"}
{"compound": "COc1ccc(-c2nccn2-c2ccc(OC)cc2)cc1", "measured.target": "M14 melanoma", "recorded.measurement": "20500 nM"}
{"compound": "CCCc1cc(=O)n2c(C(=O)Nc3ccc(Cl)cc3C)c(C(=O)Nc3ccc(F)cc3)sc2n1", "measured.target": "M14 melanoma", "recorded.measurement": "4670 nM"}
{"compound": "C=CC(=O)N1CN(C(=O)C=C)CN(C(=O)C=C)C1", "measured.target": "M14 melanoma", "recorded.measurement": "2850 nM"}
{"compound": "Cc1cn(-c2cc(C(=O)Nc3cccc(-n4ccc5c(NC(=O)c6ccccc6)nccc54)c3)cc(C(F)(F)F)c2)cn1", "measured.target": "M14 melanoma", "recorded.measurement": "452 nM"}

###

Tested on: PC-3 prostate
Test: NCI tumour cell line growth inhibition, 48 h
Catalogue of TGI values
reported.property: TGI

{"compound": "COc1cc(/C=C\\c2cc(OC)c(OC)c(OC)c2)cc(N/C=C\\C(=O)c2c[nH]c3ccccc23)c1OC", "recorded.measurement": "18.6 µM"}
{"compound": "CCCc1cc(=O)n2c(C(=O)Nc3ccc(Cl)cc3C)c(C(=O)Nc3ccc(F)cc3)sc2n1", "recorded.measurement": "11 µM"}
{"compound": "CC(C)=CCC/C(C)=C/COC(C)(C)C1=CCC(C)CC1 (centres undefined) (tested in a mixture with another compound)", "recorded.measurement": "> 100 µM"}
{"compound": "C=C1c2cc3c(cc2CC12Cc1cc4c(cc1C2=O)CCC4)CCC3 (centres undefined)", "recorded.measurement": "> 100 µM"}

###

Test system: EKVX NSCLC
Assay: NCI tumour cell line growth inhibition, 48 h
Catalogue of GI50 values

{"input.smiles": "CCc1ccc2c(c1)C(=O)c1c-2n(CCCN=[N+]=[N-])c(=O)c2cc([N+](=O)[O-])ccc12", "GI50": "> 50 µM"}
{"input.smiles": "COc1cc2c(Nc3cc(Cl)c(OC)c(Cl)c3)c(C#N)cnc2cc1OCCCN1CCN(C)CC1", "GI50": "1.17 µM"}
{"input.smiles": "COc1cc2c(/C=N\\N=C(N)N)c[nH]c2cc1C", "GI50": "28.3 µM"}
{"input.smiles": "CCN(CC)CCCCCCNc1cccc2cc(Br)cnc12", "GI50": "10.2 µM"}
{"input.smiles": "Cc1cn(-c2cc(C(=O)Nc3cccc(-n4ccc5c(NC(=O)c6ccccc6)nccc54)c3)cc(C(F)(F)F)c2)cn1", "GI50": "2.32 µM"}
{"input.smiles": "O=C(O)c1cccc(COc2ccc([N+](=O)[O-])cc2Cl)c1", "GI50": "0.549 µM"}
{"input.smiles": "N[C@H](CCC(=O)N[C@@H](Cc1c[nH]c2ccccc12)C(=O)O)C(=O)O", "GI50": "> 100 µM"}
{"input.smiles": "COc1cc2cc(Oc3ccc(NC(=O)c4cc(C(F)(F)F)cc(C(F)(F)F)c4)cc3)c(C)nc2cc1OC", "GI50": "2.04 µM"}
{"input.smiles": "COC(=O)c1cc2c(o1)-c1nccc3c1c(nc1ccccc13)C2=O", "GI50": "14.9 µM"}
{"input.smiles": "Nc1cc2c(cc1Br)[nH]c(=O)c1ccccc12", "GI50": "4.18 µM"}

###

Tested on: SF-539 CNS
Experiment: NCI tumour cell line growth inhibition, 48 h
Catalogue of TGI values

{"molecule": "CCC/C=C/C=C/C1CC(O)C(O)C(=O)C1CO (stereo not given)", "measured.target": "SF-539 CNS", "units.label": "µM", "modifier": ">", "TGI": 100}
{"molecule": "O=C1CC(C(O)(C(F)(F)F)C(F)(F)Cl)CCC1C(O)(C(F)(F)F)C(F)(F)Cl (stereo not given)", "measured.target": "SF-539 CNS", "units.label": "µM", "modifier": ">", "TGI": 10}
{"molecule": "COc1ccc(-c2cnnn2-c2nonc2-n2cccc2)cc1", "measured.target": "SF-539 CNS", "units.label": "µM", "modifier": "=", "TGI": 4}
{"molecule": "COc1cc2c(Nc3cc(Cl)c(OC)c(Cl)c3)c(C#N)cnc2cc1OCCCN1CCN(C)CC1", "measured.target": "SF-539 CNS", "units.label": "µM", "modifier": "=", "TGI": 2.91}
{"molecule": "CCC1CN2CCc3cc(OC)c(OC)cc3C2CC1CC1c2cc(OC)c(OC)cc2CCN1C(=O)C1CCCN1 (stereo not given)", "measured.target": "SF-539 CNS", "units.label": "µM", "modifier": "=", "TGI": 37.8}
{"molecule": "C=C1c2cc3c(cc2CC12Cc1cc4c(cc1C2=O)CCC4)CCC3 (stereo not given)", "measured.target": "SF-539 CNS", "units.label": "µM", "modifier": ">", "TGI": 100}
{"molecule": "CC(C)CCC[C@@H](C)C1CCC2[C@@H]3CC=C4C[C@@H](C(=O)NCCN(C)C)CC[C@]4(C)C3CC[C@@]21C (stereo not given in full)", "measured.target": "SF-539 CNS", "units.label": "µM", "modifier": "=", "TGI": 46}
{"molecule": "N#CCc1nc(-c2ccccc2)n[nH]1", "measured.target": "SF-539 CNS", "units.label": "µM", "modifier": ">", "TGI": 100}
{"molecule": "Cc1cn([C@@H]2C[C@H](CO)[C@@H](O)C2)c(=O)[nH]c1=O", "measured.target": "SF-539 CNS", "units.label": "µM", "modifier": ">", "TGI": 100}
{"molecule": "C=CCNC(=S)N=Nc1c(O)[nH]c2ccc([N+](=O)[O-])cc12", "measured.target": "SF-539 CNS", "units.label": "µM", "modifier": ">", "TGI": 100}
{"molecule": "O=C(Oc1cc(=O)c(OC(=O)c2ccccc2)co1)c1ccccc1", "measured.target": "SF-539 CNS", "units.label": "µM", "modifier": ">", "TGI": 100}
{"molecule": "CCN1c2ccccc2-c2c3c1cc(C)cc3c1ccccc1[n+]2CC", "measured.target": "SF-539 CNS", "units.label": "µM", "modifier": "=", "TGI": 2.51}
{"molecule": "COc1ccc(/C(C)=C(\\c2ccc(OCCN3CCCCCC3)cc2)c2ccc(OC(=O)C3CCCCC3)cc2)cc1", "measured.target": "SF-539 CNS", "units.label": "µM", "modifier": "=", "TGI": 2.74}
{"molecule": "COc1cccc(/C=N/[N-]C(=O)c2ccncc2)c1[O-].COc1cccc(/C=N/[N-]C(=O)c2ccncc2)c1[O-].[O]=[U](=[O])([OH2+])[OH2+]", "measured.target": "SF-539 CNS", "units.label": "µM", "modifier": ">", "TGI": 42.8}
{"molecule": "O=[N+]([O-])c1cccc(C2=NOC(C3CCCCC3)C2)c1 (stereo not given)", "measured.target": "SF-539 CNS", "units.label": "µM", "modifier": ">", "TGI": 100}
{"molecule": "COc1ccc(C(CC(=O)c2ccc3c(c2)OCO3)c2c(O)c3ccccc3oc2=O)cc1OC (stereo not given)", "measured.target": "SF-539 CNS", "units.label": "µM", "modifier": ">", "TGI": 100}
{"molecule": "COc1ccc(CC2c3c(cc(OC)c(OC)c3OC)CCN2C)cc1OC (stereo not given)", "measured.target": "SF-539 CNS", "units.label": "µM", "modifier": ">", "TGI": 100}
{"molecule": "O=C(O)c1cc(-c2ccc3c(O)c(O)ccc3c2)ccc1O", "measured.target": "SF-539 CNS", "units.label": "µM", "modifier": ">", "TGI": 75}
{"molecule": "COc1cc(/C=C\\c2cc(OC)c(OC)c(OC)c2)cc(N/C=C\\C(=O)c2c[nH]c3ccccc23)c1OC", "measured.target": "SF-539 CNS", "units.label": "µM", "modifier": "=", "TGI": 3.19}
{"molecule": "COC(=O)C(=O)C(C(C)=O)C(=O)NCc1ccc(OC)c(OC)c1 (stereo not given)", "measured.target": "SF-539 CNS", "units.label": "µM", "modifier": ">", "TGI": 100}
{"molecule": "N=C(N)c1ccc(-c2ccc(-c3cccs3)s2)cc1", "measured.target": "SF-539 CNS", "units.label": "µM", "modifier": "=", "TGI": 3.09}
{"molecule": "CC(=O)O[C@H]1C(=O)[C@@]2(C)[C@H]([C@H](OC(=O)c3ccc(F)cc3)[C@]3(O)C[C@H](OC(=O)[C@H](O)[C@@H](NC(=O)c4ccccc4)c4ccccc4)C(C)=C1C3(C)C)[C@]1(OC(C)=O)CO[C@@H]1C[C@@H]2O", "measured.target": "SF-539 CNS", "units.label": "µM", "modifier": "=", "TGI": 0.0604}
{"molecule": "COc1ccc(-c2nccn2-c2ccc(OC)cc2)cc1", "measured.target": "SF-539 CNS", "units.label": "µM", "modifier": "=", "TGI": 90.4}
{"molecule": "CN(C(=O)c1ccc([N+](=O)[O-])cc1)c1ccccc1", "measured.target": "SF-539 CNS", "units.label": "µM", "modifier": ">", "TGI": 100}
{"molecule": "NCCCN1CCN(CCCNc2ccc3nnn4c5ccccc5c(=O)c2c34)CC1", "measured.target": "SF-539 CNS", "units.label": "µM", "modifier": "=", "TGI": 36.2}
